Measured Expression accompanies every entry in the list below.
# System: HEK293 cells
# Type: cell-based, human
# STUDY_CONDITIONS: luminescence from secreted Gluc in supernatant 24 hours after transfection of HEK293 cells; circular RNA encoding Gluc with the named IRES (UTR truncated to 675 nt)
ENDPOINT_LABEL: Expression

Jingmen picorna-like virus (nucleic acid) DNA: TGTGTTTTTGTCAAGATAATTGTTCTGTGATTAACAGTGATTGTGGTTCGTGTAATGCGACGCAGTCAAATGCTAGTTTTGATGAAGTGTATGAGAGAGTGGAAAACTTATCTCATAAGAAGATTGAAGAGTGTGTAGATCAGGCTATTGATCGAGCTTCTAAGCTTCGTGATTACAAGCTTAATGTTCACAATGGCTCCCGACGGGAATCATCTGATCCTCTCTTTATTTCGCCCCATTCGTTGTTATCGCTTGGGGTATCTAAGTTTGTTGCGTTTGAGCAGCATCACAGTTTCGCTTCAGTTGAGTCTCTGAAGTTGCTTGCTCTGTCT :: 9.32E+04
Bovine hepacivirus (nucleic acid, listed as Hepacivirus sp.) DNA: CCATCGACACTCCAGGCTCACGGATTAAGTTAGGTTCCGCCGAAGCGGGCTAACCAGGCCCCTAGTAGGAGGCGCCTATCCCGTGAGCCCTTTCCCCACGGATTGAGTGGAGCTGGAGCTGGGAAGGACCGAGTACGGTCCAATCGAGAAGAACCCTGATGAACATTCCAGGCCTCTTCGGTAGATTTGGATATATCCACCAGTGAAGGCGGGGTCGTGGGTACAGGCCCCCTAGTCCACACAGCCTGATAGGGTCCTGCCGCAGGATCCGTGGGTGCGGCTGTACATGTACC :: 1.89E+05
